Reported values of IC50 for individual entries
- measured target: O-acetylserine sulfhydrylase (Mycobacterium tuberculosis, UniProt P9WP55)
value kind: IC50 (nM)

{"columns": ["given smiles", "recorded number"],
 "data": [
  ["CCN1C(=O)/C(=C/c2ccc(OC)c(OC)c2)S/C1=N\\c1cccc(C(=O)O)c1", 56],
  ["COc1cc(/C=C2\\S/C(=N\\c3cccc(C(=O)O)c3)N(C)C2=O)ccc1O", 60],
  ["CN1C(=O)/C(=C/c2ccc(OCc3ccccc3)cc2)S/C1=N\\c1cccc(C(=O)O)c1", 25.6],
  ["COc1cc(/C=C2\\S/C(=N\\c3cccc(C(=O)O)c3)N(C)C2=O)cc(OC)c1OC", 69.9],
  ["CN1C(=O)/C(=C/c2ccc(F)cc2)S/C1=N\\c1cccc(C(=O)O)c1", 19],
  ["CC(C)N1C(=O)/C(=C/c2ccc(O)cc2)S/C1=N\\c1cccc(C(=O)O)c1", 141],
  ["CN1C(=O)/C(=C/c2ccc(N(C)C)cc2)S/C1=N\\c1cccc(C(=O)O)c1", 37]
]}

The reported numbers originate from ChEMBL document CHEMBL2417551.
